The reported measurements were obtained from PubChem BioAssay (NCATS).

Recorded measurements of Potency, one per entry
experiment: Quantitative High-Throughput drug screen in 47 multiple myeloma cell lines against the NCATS MIPE library collection: MMM1_PLB cell viability assay (AID 1918976); conditions: MMM1 myeloma cells viability, CellTiter-Glo, 48 h; series mostly up to 45.8 µM; further: potency means the concentration at half of the fitted maximal effect; nearly all actives have a fitted effect of over 35% in size
Results filed as inconclusive are left out. Calls of active or inactive are those of the source. The call rests on the fitted dose curve; in most records, active means well fitted cell-killing curve with a large enough effect; inconclusive means small, poorly fitted or top-dose-only effect, or effect the other way; inactive means no such curve, though single readings can be large or run the other way.

O=C(CCCN1CCN(c2ccc(F)cc2)CC1)NC1c2ccccc2CSc2ccccc21 (stereo not given): 5.9 µM (active)
CC[C@H](CC#N)OC(=O)N[C@@H](C)c1cccc(NC(=O)Nc2ccc(-c3cnco3)c(OC)c2)c1: 20.9 µM (active)
CCN1C[C@H](C)n2c(c(O)c3c(=O)n(Cc4ccc(F)c(Cl)c4)nc(C(=O)NC)c32)C1=O: 2.64 µM (active)
Nc1nc(Cl)nc2c1ncn2[C@@H]1O[C@H](CO)[C@@H](O)[C@H]1F: 2.09 µM (active)

Field: next compound
Reported Potency of Cc1ccccc1C(=O)c1ccc(Nc2ccc(Br)cc2N)cc1Cl : 16.6 µM (active)

---

experiment: Quantitative High-Throughput drug screen in 47 multiple myeloma cell lines against the NCATS MIPE library collection: ARD_JJKsccE7 cell viability assay (AID 1918929; further: potency means the concentration at half of the fitted maximal effect); settings: ARD myeloma cell line viability, CellTiter-Glo, 48 h; series mostly up to 45.8 µM
Results filed as inconclusive are left out. Active and inactive are the calls of the source. Calls come from the whole dose curve; as a rule, active = well fitted cell-killing curve with a large enough effect; inconclusive = small, poorly fitted or top-dose-only effect, or effect the other way; inactive = no such curve, though single readings can be large or run the other way.
observable: Potency

A selection of reference data follows.
NC1(C(=O)N[C@@H](CCO)c2ccc(Cl)cc2)CCN(c2ncnc3[nH]ccc23)CC1: 46.9 nM (active)
CC1=C(C(=O)Nc2cc3cn[nH]c3cc2F)C(c2ccc(C(F)(F)F)cc2)CC(=O)N1 (centres undefined): inactive
Nc1ccn([C@@H]2O[C@H](CO)[C@@H](O)[C@H]2O)c(=O)n1: inactive
Nc1nc(Cl)nc2c1ncn2[C@@H]1O[C@H](CO)[C@@H](O)[C@H]1F: 418 nM (active)
COC(=O)N1CCN(Cc2cccc(NC(=O)Nc3ccc(C)nc3)c2F)CC1: inactive
Cc1ccc2c(c1)C(=O)[C@]1(O)CCN(c3ccccc3)C1=N2: inactive

Reported Potency of COc1cc([C@H]2Oc3cc([C@H]4Oc5cc(O)cc(O)c5C(=O)[C@H]4O)ccc3O[C@H]2CO)ccc1O : inactive

Reported Potency of CN1CCN2c3ncccc3Cc3ccccc3C2C1 (centres undefined) : inactive

Reported Potency of CC(C)N(CCCNC(=O)Nc1ccc(C(C)(C)C)cc1)C[C@H]1O[C@@H](n2cc(Br)c3c(N)ncnc32)[C@H](O)[C@H]1O : inactive

---

assay: qHTS of pediatric cancer cell lines to identify multiple opportunities for drug repurposing: Primary screen for BT-12 cells (AID 1347101); settings: BT-12 viability, CellTiter-Glo luminescence, 48 h; series mostly up to 57.3 µM; further: nearly all actives have a fitted effect of over 25% in size; further: potency means the concentration at half of the fitted maximal effect
Records with an inconclusive call do not appear. Activity calls are given as the source filed them. Calls come from the whole dose curve; as a rule, active = well fitted cell-killing curve with a large enough effect; inconclusive = small, poorly fitted or top-dose-only effect; inactive = flat fitted curve, though single readings scatter.
observable: Potency

A selection of reference data follows.
COc1ccc(-c2oc3c(CC=C(C)C)c(O)cc(O)c3c(=O)c2O)cc1: inactive
CNc1nc(Nc2ccc(C(=O)N3CCOCC3)cc2OC)ncc1Cl: inactive
O=c1[nH]c(=O)n([C@H]2C[C@@H](O)[C@@H](CO)O2)cc1C(F)(F)F: 10.9 µM (active)
Cc1cccc(Nc2nc(N[C@@H]3CCCC[C@H]3N)ncc2C(N)=O)c1: 30.6 µM (active)
CC[C@@H]([C@H](C)O)n1ncn(-c2ccc(N3CCN(c4ccc(OCC5CO[C@@](Cn6cncn6)(c6ccc(F)cc6F)C5)cc4)CC3)cc2)c1=O (stereo partly drawn): 21.7 µM (active)
COc1nc(C)cnc1NS(=O)(=O)c1cccnc1-c1ccc(-c2nnco2)cc1: inactive
COc1ccnc(CS(=O)c2nc3ccc(OC(F)F)cc3[nH]2)c1OC (stereo not drawn): inactive
CC(C)(OCc1nn(Cc2ccccc2)c2ccccc12)C(=O)O: inactive

Reported Potency of CCOC(=O)[C@H]1O[C@H]1C(=O)N[C@@H](CC(C)C)C(=O)NCCC(C)C : inactive

Reported Potency of C[C@@H]1C[C@H]2[C@@H]3CCC4=CC(=O)C=C[C@]4(C)[C@@]3(F)[C@@H](O)C[C@]2(C)[C@@]1(O)C(=O)CO : inactive

Reported Potency of Cc1cnc(Nc2cccc(CN3CCOCC3)c2)nc1Nc1cccc(S(=O)(=O)NC(C)(C)C)c1 : 13.7 µM (active)
